Recorded values, source the Human Domainome abundance scans (Beltran et al. 2025).

B1: POU domain, class 3, transcription factor 4, residues 280 to 335; numbered along this chain, P49335 (parent)
chain: KKRTSIEVSVKGVLETHFLKCPKPAAQEISSLADSLQLEKEVVRVWFCNRRQKEKR

Variants of: B1
Assay: abundance fitness (aPCA) (normalised: wild type 0, dead -1); higher = more abundant; growth selection in yeast, the domain comes from the species named
Details: Homo sapiens
abundance fitness of -0.2 or higher: YES. Under -0.2: NO.

- R44N: YES
- I6Y: NO
- V45C: NO
- V42T: YES
- H17W: YES
- P24R: NO
- N49Y: NO
- P22Q: YES
- E54M: NO
- S9E: YES
- F18I: NO
